Origin of the recorded values: ChEMBL document CHEMBL4725359

Readings of pEC50 for the listed molecules
Test system: Plasmodium falciparum
protocolSummary: Antimalarial activity against chloroquine-sensitive synchronized ring stage of Plasmodium falciparum 3D7 incubated for 48 to 52 hrs by SYBR green 1 dye based assay
Format: functional, organism-based
studyConditions: read-out: EC50
// pEC50 here means minus log10 of the molar concentration (mol/L)

> print(dat)
                                givensmiles  valuekind  observedvalue
1  COc1ccccc1-c1cc2c(-c3ccc(C(=O)O)c(C(C)C)c3)ccnc2[nH]1      pEC50           5.84
2  CCN(CC)Cc1cccc(-c2cc3c(-c4ccc(C(=O)O)c(C(C)C)c4)ccnc3[nH]2)c1      pEC50           6.51
3  COc1ccc(CN2CCCC2)cc1-c1cc2c(-c3ccc(C(=O)O)c(C(C)C)c3)ccnc2[nH]1      pEC50           6.42
4  COc1ccc(CN)cc1-c1cc2c(-c3ccc(C(=O)O)c(C(C)C)c3)ccnc2[nH]1      pEC50           5.55

Form field: reported pEC50 of COc1ccc(CN(C)C)cc1-c1cc2c(-c3ccc(C(=O)O)c(C(C)C)c3)ccnc2[nH]1
6.34
